Molecular target: Thioesterase GrsT homolog tycF (Brevibacillus brevis) (UniProt O30412)
Sequence (whole entry): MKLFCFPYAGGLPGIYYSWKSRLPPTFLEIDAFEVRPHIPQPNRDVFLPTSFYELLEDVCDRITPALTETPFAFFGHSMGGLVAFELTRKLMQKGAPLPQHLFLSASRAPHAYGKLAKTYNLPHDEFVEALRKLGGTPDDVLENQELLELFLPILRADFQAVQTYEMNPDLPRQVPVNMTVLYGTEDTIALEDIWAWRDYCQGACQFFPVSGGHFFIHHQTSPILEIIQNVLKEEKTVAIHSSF
Assay: Apparent kinetic constant (Kcat) for tyrocidine thioesterase amplified from Bacillus brevis (ATCC8185)
Recorded measurements of k cat, one per entry
parameter: k cat (s⁻¹)

entry smiles	obs value
CC(=O)NCCSC(=O)[C@H](CC(C)C)NC(=O)[C@H](CCCN)NC(=O)[C@@H](NC(=O)[C@H](Cc1ccc(O)cc1)NC(=O)[C@@H](NC(=O)[C@H](CC(N)=O)NC(=O)[C@@H](Cc1ccccc1)NC(=O)[C@H](Cc1ccccc1)NC(=O)[C@@H]1CCCN1C(=O)[C@H](N)Cc1ccccc1)C(C)C)C(C)C	0.16
CC(=O)NCCSC(=O)[C@H](CC(C)C)NC(=O)[C@H](CCCN)NC(=O)[C@@H](NC(=O)[C@H](Cc1ccc(O)cc1)NC(=O)[C@H](CCC(N)=O)NC(=O)[C@H](CC(N)=O)NC(=O)[C@H](CCCCN)NC(=O)[C@H](Cc1ccccc1)NC(=O)[C@@H]1CCCN1C(=O)[C@H](N)Cc1ccccc1)C(C)C	0.233

Source listed as ChEMBL document CHEMBL1135258.
